# Tested on: HeLa Kyoto
# measurementProtocol: melting temperature (median over replicates), in situ; higher = more thermally stable
# experimentalSetup: cell cycle stage: mitosis
readoutType: melting temperature (°C)
Answer in °C, number only, no unit symbol.

Task: # lookup: melting temperature of MNAARTGYRVFSANSTAACTELAKRITERLGAELGKSVVYQETNGETRVEIKESVRGQDIFIIQTIPRDVNTAVMELLIMAYALKTACARNIIGVIPYFPYSKQSKMRKRGSIVCKLLASMLAKAGLTHIITMDLHQKEIQGFFSFPVDNLRASPFLLQYIQEEIPNYRNAVIVAKSPDAAKRAQSYAERLRLGLAVIHGEAQCTELDMDDGRHSPPMVKNATVHPGLELPLMMAKEKPPITVVGDVGGRIAIIVDDIIDDVESFVAAAEILKERGAYKIYVMATHGILSAEAPRLIEESSVDEVVVTNTVPHEVQKLQCPKIKTVDISLILSEAIRRIHNGESMAYLFRNITVDD [PRPSAP1]
Result: 54.6

---

# System: HeLa Kyoto
# measurementProtocol: solubility in G1/S (NP-40 vs SDS abundance) (log2 ratio); higher = more soluble
# experimentalSetup: cell cycle stage: G1/S
readoutType: solubility in G1/S (log2)

Task: Record request: solubility in G1/S (log2) value, item MVGEMETKEKPKPTPDYLMQLMNDKKLMSSLPNFCGIFNHLERLLDEEISRVRKDMYNDTLNGSTEKRSAELPDAVGPIVQLQEKLYVPVKEYPDFNFVGRILGPRGLTAKQLEAETGCKIMVRGKGSMRDKKKEEQNRGKPNWEHLNEDLHVLITVEDAQNRAEIKLKRAVEEVKKLLVPAAEGEDSLKKMQLMELAILNGTYRDANIKSPALAFSLAATAQAAPRIITGPAPVLPPAALRTPTPAGPTIMPLIRQIQTAVMPNGTPHPTAAIVPPGPEAGLIYTPYEYPYTLAPATSILEYPIEPSGVLGAVATKVRRHDMRVHPYQRIVTADRAATGN [QKI]
Result: 0.613

---

# Test system: HeLa Kyoto
# measurementProtocol: thermal stability score vs G1/S (z-score of summed log2 fold changes over temperatures); higher = more thermally stable than in G1/S
# experimentalSetup: cell cycle stage: mitosis
Label rule, in plain words: thermal stability score of -1 and up is yes (1), under -1 is no (0).

{"columns": ["constructSequence", "discreteLabel"],
 "data": [
  ["MARVLKAAAANAVGLFSRLQAPIPTVRASSTSQPLDQVTGSVWNLGRLNHVAIAVPDLEKAAAFYKNILGAQVSEAVPLPEHGVSVVFVNLGNTKMELLHPLGRDSPIAGFLQKNKAGGMHHICIEVDNINAAVMDLKKKKIRSLSEEVKIGAHGKPVIFLHPKDCGGVLVELEQA [MCEE]", "no (0)"],
  ["MENTENSVDSKSIKNLEPKIIHGSESMDSGISLDNSYKMDYPEMGLCIIINNKNFHKSTGMTSRSGTDVDAANLRETFRNLKYEVRNKNDLTREEIVELMRDVSKEDHSKRSSFVCVLLSHGEEGIIFGTNGPVDLKKITNFFRGDRCRSLTGKPKLFIIQACRGTELDCGIETDSGVDDDMACHKIPVEADFLYAYSTAPGYYSWRNSKDGSWFIQSLCAMLKQYADKLEFMHILTRVNRKVATEFESFSFDATFHAKKQIPCIVSMLTKELYFYH [CASP3]", "yes (1)"],
  ["MEPLAAYPLKCSGPRAKVFAVLLSIVLCTVTLFLLQLKFLKPKINSFYAFEVKDAKGRTVSLEKYKGKVSLVVNVASDCQLTDRNYLGLKELHKEFGPSHFSVLAFPCNQFGESEPRPSKEVESFARKNYGVTFPIFHKIKILGSEGEPAFRFLVDSSKKEPRWNFWKYLVNPEGQVVKFWKPEEPIEVIRPDIAALVRQVIIKKKEDL [GPX8]", "yes (1)"],
  ["MASNVTNKTDPRSMNSRVFIGNLNTLVVKKSDVEAIFSKYGKIVGCSVHKGFAFVQYVNERNARAAVAGEDGRMIAGQVLDINLAAEPKVNRGKAGVKRSAAEMYGSVTEHPSPSPLLSSSFDLDYDFQRDYYDRMYSYPARVPPPPPIARAVVPSKRQRVSGNTSRRGKSGFNSKSGQRGSSKSGKLKGDDLQAIKKELTQIKQKVDSLLENLEKIEKEQSKQAVEMKNDKSEEEQSSSSVKKDETNVKMESEGGADDSAEEGDLLDDDDNEDRGDDQLELIKDDEKEAEEGEDDRDSANGEDDS [HNRNPC]", "yes (1)"],
  ["MKLLARALRLCEFGRQASSRRLVAGQGCVGPRRGCCAPVQVVGPRADLPPCGACITGRIMRPDDANVAGNVHGGTILKMIEEAGAIISTRHCNSQNGERCVAALARVERTDFLSPMCIGEVAHVSAEITYTSKHSVEVQVNVMSENILTGAKKLTNKATLWYVPLSLKNVDKVLEVPPVVYSRQEQEEEGRKRYEAQKLERMETKWRNGDIVQPVLNPEPNTVSYSQSSLIHLVGPSDCTLHGFVHGGVTMKLMDEVAGIVAARHCKTNIVTASVDAINFHDKIRKGCVITISGRMTFTSNKSMEIEVLVDADPVVDSSQKRYRAASAFFTYVSLSQEGRSLPVPQLVPETEDEKKRFEEGKGRYLQMKAKRQGHAEPQP [ACOT7]", "no (0)"]
]}

Task: hey, is thermal stability score for this one >= -1? MPELAVQKVVVHPLVLLSVVDHFNRIGKVGNQKRVVGVLLGSWQKKVLDVSNSFAVPFDEDDKDDSVWFLDHDYLENMYGMFKKVNARERIVGWYHTGPKLHKNDIAINELMKRYCPNSVLVIIDVKPKDLGLPTEAYISVEEVHDDGTPTSKTFEHVTSEIGAEEAEEVGVEHLLRDIKDTTVGTLSQRITNQVHGLKGLNSKLLDIRSYLEKVATGKLPINHQIIYQLQDVFNLLPDVSLQEFVKAFYLKTNDQMVVVYLASLIRSVVALHNLINNKIANRDAEKKEGQEKEESKKDRKEDKEKDKDKEKSDVKKEEKKEKK [PSMD7]
Result: no (0)

Task: Confirm if thermal stability score reported for the sequence MSRLLPLLRSRTARSLRPGPAAAAAPRPPSWCCCGRGLLALAPPGGLPGGPRRLGTHPKKEPMEALNTAQGARDFIYSLHSTERSCLLKELHRFESIAIAQEKLEAPPPTPGQLRYVFIHNAIPFIGFGFLDNAIMIVAGTHIEMSIGIILGISTMAAAALGNLVSDLAGLGLAGYVEALASRLGLSIPDLTPKQVDMWQTRLSTHLGKAVGVTIGCILGMFPLIFFGGGEEDEKLETKS [TMEM65] is -1 or above.
Result: yes (1)

Task: Is it the case that MDWLMGKSKAKPNGKKPAAEERKAYLEPEHTKARITDFQFKELVVLPREIDLNEWLASNTTTFFHHINLQYSTISEFCTGETCQTMAVCNTQYYWYDERGKKVKCTAPQYVDFVMSSVQKLVTDEDVFPTKYGREFPSSFESLVRKICRHLFHVLAHIYWAHFKETLALELHGHLNTLYVHFILFAREFNLLDPKETAIMDDLTEVLCSGAGGVHSGGSGDGAGSGGPGAQNHVKER [MOB2] has thermal stability score reaching or exceeding -1?
Result: yes (1)

Task: # bool: thermal stability score of MIEVVAELSRGPVFLAGEALECVVTVTNPLPPTATSASSEALAWASAQIHCQFHASESRVALPPPDSSQPDVQPDSQTVFLPHRGERGQCILSTPPKILFCDLRLDPGESKSYSYSEVLPIEGPPSFRGQSVKYVYKLTIGCQRVNSPITLLRVPLRVLVLTGLQDVRFPQDEAVAPSSPFLEEDEGGKKDSWLAELAGERLMAATSCRSLHLYNISDGRGKVGTFGIFKSVYRLGEDVVGTLNLGEGTVACLQFSVSLQTEERVQPEYQRRRGAGGVPSVSHVTHARHQESCLHTTRTSFSLPIPLSSTPGFCTAIVSLKWRLHFEFVTSREPGLVLLPPVEQPEPTTWTGPEQVPVDTFSWDLPIKVLPTSPTLASYAAPGPSTSTITI [RGP1] >= -1
Result: no (0)

Task: Does the sequence MSLSDWHLAVKLADQPLTPKSILRLPETELGEYSLGGYSISFLKQLIAGKLQESVPDPELIDLIYCGRKLKDDQTLDFYGIQPGSTVHVLRKSWPEPDQKPEPVDKVAAMREFRVLHTALHSSSSYREAVFKMLSNKESLDQIIVATPGLSSDPIALGVLQDKDLFSVFADPNMLDTLVPAHPALVNAIVLVLHSVAGSAPMPGTDSSSRSMPSSSYRDMPGGFLFEGLSDDEDDFHPNTRSTPSSSTPSSRPASLGYSGAAGPRPITQSELATALALASTPESSSHTPTPGTQGHSSGTSPMSSGVQSGTPITNDLFSQALQHALQASGQPSLQSQWQPQLQQLRDMGIQDDELSLRALQATGGDIQAALELIFAGGAP [UBL7] have recorded thermal stability score that is -1 or more?
Result: yes (1)

Values compiled from the supplement of paper PMC5998384.
